Experiment: Pharmacokinetics of PUR in rat plasma after single oral administration, UHPLC-MS/MS
Type: in vivo, male Wistar rats
Settings: male, Wistar; PUR in rat plasma; oral PUR 100 mg/kg; n = 6, mean ± SD; read-out: CLz/F (converted)
Metric name: CL/F (L/h/kg)
Supply the numeric figure in L/h/kg, leaving out any unit text.

Task: # query: CL/F of entry O=c1c(-c2ccc(O)cc2)coc2c([C@@H]3O[C@H](CO)[C@@H](O)[C@H](O)[C@H]3O)c(O)ccc12 [PUR, daidzein-8-C-glucoside]
Result: 509

###

Experiment: Pharmacokinetics of PUR in rat plasma after single oral administration, UHPLC-MS/MS
Type: in vivo, male Wistar rats
Details: male, Wistar; PUR in rat plasma; oral PUR 100 mg/kg; n = 6, mean ± SD
Metric name: Tmax

Task: Looking for the measured Tmax of O=c1c(-c2ccc(O)cc2)coc2c([C@@H]3O[C@H](CO)[C@@H](O)[C@H](O)[C@H]3O)c(O)ccc12 [PUR, daidzein-8-C-glucoside] , can you help?
Result: 1.46 h

###

Experiment: Pharmacokinetics of PUR in rat plasma after single oral administration, UHPLC-MS/MS
Format: in vivo, male Wistar rats
Settings: male, Wistar; PUR in rat plasma; oral PUR 100 mg/kg; n = 6, mean ± SD; read-out: Vz/F
Metric name: Vd/F (L/kg)
Quick reminder: number only, in L/kg, skip the unit.

Task: Which Vd/F value belongs to O=c1c(-c2ccc(O)cc2)coc2c([C@@H]3O[C@H](CO)[C@@H](O)[C@H](O)[C@H]3O)c(O)ccc12 [PUR, daidzein-8-C-glucoside] ?
Result: 1200
